Listed next: entries and their corresponding Inhibition of ligand binding, Serotonin 5-HT6 (percent inhibition of specific binding).
- MEASUREMENT TARGET: human recombinant serotonin (5-Hydroxytryptamine) 5-HT6 receptor (Homo sapiens)
- Construct: expressed in transfected cells; host or cells: human HeLa cells
- Sequence (P50406 whole entry): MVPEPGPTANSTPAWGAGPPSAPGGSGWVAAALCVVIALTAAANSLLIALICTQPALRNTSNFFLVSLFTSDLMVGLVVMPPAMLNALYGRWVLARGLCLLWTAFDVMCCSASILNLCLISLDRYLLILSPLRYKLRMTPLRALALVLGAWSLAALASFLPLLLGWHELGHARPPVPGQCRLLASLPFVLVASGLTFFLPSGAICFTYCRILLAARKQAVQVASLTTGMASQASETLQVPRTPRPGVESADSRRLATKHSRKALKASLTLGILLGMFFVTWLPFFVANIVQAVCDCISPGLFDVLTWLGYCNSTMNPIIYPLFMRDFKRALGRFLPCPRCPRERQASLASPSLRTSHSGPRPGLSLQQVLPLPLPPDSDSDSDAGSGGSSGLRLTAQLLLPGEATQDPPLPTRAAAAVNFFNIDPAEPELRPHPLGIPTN
- ASSAY EXPLANATION: Serotonin 5-HT6 radioligand binding ([3H]LSD)
- PROTOCOL CONDITIONS: compound at 1 μM; 1 µM
Field format: number, assumed %, no unit text.

Take a look at these entries with their results.
CN1CCc2c(c3cc(Cl)ccc3n2C/C(=C\CCO)c2ccc(F)cc2)C1 : 98
CN1CCc2c(c3cc(Cl)ccc3n2C/C(=C/CCO)c2ccc(F)cc2)C1 : 103
C/C(=C\n1c2c(c3cc(C)ccc31)CN(C)CC2)c1ccncc1 : 103

We now examine a further compound.
Entry C/C(=C\n1c2c(c3cc(Cl)ccc31)CN(C)CC2)c1ccc(Cl)cc1Cl ; Inhibition of ligand binding, Serotonin 5-HT6 (percent inhibition of specific binding) = 76

----------
- MEASUREMENT TARGET: histamine receptor H1 (Homo sapiens)
- Sequence (P35367 whole entry): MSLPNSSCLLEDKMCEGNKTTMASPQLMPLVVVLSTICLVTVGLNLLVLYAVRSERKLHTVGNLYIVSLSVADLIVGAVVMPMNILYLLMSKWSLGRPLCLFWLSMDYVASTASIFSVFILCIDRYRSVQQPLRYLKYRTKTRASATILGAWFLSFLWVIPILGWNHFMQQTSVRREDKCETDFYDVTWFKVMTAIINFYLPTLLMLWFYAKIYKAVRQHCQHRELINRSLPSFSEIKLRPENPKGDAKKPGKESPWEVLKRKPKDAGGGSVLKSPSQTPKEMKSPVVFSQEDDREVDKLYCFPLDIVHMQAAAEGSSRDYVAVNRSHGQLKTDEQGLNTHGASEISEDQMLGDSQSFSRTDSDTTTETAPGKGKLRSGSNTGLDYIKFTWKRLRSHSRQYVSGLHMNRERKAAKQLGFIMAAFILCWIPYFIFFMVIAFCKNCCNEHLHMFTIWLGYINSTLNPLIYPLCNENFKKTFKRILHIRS
- ASSAY EXPLANATION: Histamine H1 radioligand binding ([3H]Pyrilamine)
- PROTOCOL CONDITIONS: read-out: Histamine Binding (1 μM) H1, percent inhibition of specific binding, 1 μM
Parameter threshold = 30%. Response is met when inhibition at 1 µM meets or exceeds it, else not met.

C/C(=C/n1c2c(c3cc(C)ccc31)CN(C)CC2)c1ccncc1 : not met

Dear colleague, could you confirm whether CCCc1ccc(C#Cn2c3c(c4cc(Cl)ccc42)CN(C)CC3)cn1 has inhibition at 1 µM at or above 30%?
met

Item C/C(=C\n1c2c(c3cc(Cl)ccc31)CN(C(=O)OCc1ccccc1)CC2)c1ccncc1 with inhibition at 1 µM of 30% or above?
not met

Textbook exercise: given the entry C/C(=C\n1c2c(c3cc(N4CCN(C)CC4)ccc31)CN(C)CC2)c1ccncc1 , state whether its inhibition at 1 µM is greater than or equal to 30%.
met

Record C/C(=C\n1c2c(c3cc(C)ccc31)CN(C)CC2)c1ccncn1 ; criterion: inhibition at 1 µM no lower than 30%. Met?
not met

Hi team, for CN1CCc2c(c3cc(Cl)ccc3n2C2=C(c3cccnc3)CCCC2)C1 , is the recorded inhibition at 1 µM at or above 30%?
not met

Does the reported inhibition at 1 µM for C/C(=C/n1c2c(c3cc(Cl)ccc31)CN(C)CC2)c1cccc(F)c1 fall at or above the 30% mark?
met

I'd appreciate it if you could say whether CN1CCc2c(c3cccc(Cl)c3n2CC(C)(O)c2ccncc2)C1 (stereo not drawn) has inhibition at 1 µM at least equal to 30%.
not met

Is the recorded value of inhibition at 1 µM equal to or greater than 30% for this compound? C/C(=C\n1c2c(c3ccc(C(C)C)cc31)CN(C)CC2)c1ccncc1
not met

----------
- MEASUREMENT TARGET: human dopamine D2L receptor (Homo sapiens, UniProt P14416)
- Sequence (P14416 whole entry): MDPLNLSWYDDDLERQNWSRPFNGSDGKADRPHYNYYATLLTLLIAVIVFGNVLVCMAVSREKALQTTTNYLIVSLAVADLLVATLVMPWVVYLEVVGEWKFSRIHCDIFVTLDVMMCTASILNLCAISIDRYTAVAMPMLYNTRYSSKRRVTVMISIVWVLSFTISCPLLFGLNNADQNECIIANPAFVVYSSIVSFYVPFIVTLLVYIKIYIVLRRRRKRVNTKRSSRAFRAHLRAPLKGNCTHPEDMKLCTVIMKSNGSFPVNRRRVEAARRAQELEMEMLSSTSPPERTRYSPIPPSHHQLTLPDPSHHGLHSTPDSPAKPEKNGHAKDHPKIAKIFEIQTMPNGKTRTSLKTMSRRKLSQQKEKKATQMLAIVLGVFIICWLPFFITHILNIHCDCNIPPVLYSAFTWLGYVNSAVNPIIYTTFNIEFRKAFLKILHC
- ASSAY EXPLANATION: Dopamine D2L radioligand binding ([3H]Spiperone)
- PROTOCOL CONDITIONS: compound at 1 μM; […] [3H]Spiperone; read-out: Inhibition of ligand binding, Dopamine D2L (percent inhibition of specific binding)
# binning rule on inhibition at 1 µM: low-valued (below 50%), mid-valued (50% to below 70%), high-valued (70% or more)

Solved entries (count: 2):
CSc1cccc(/C(C)=C/n2c3c(c4cc(C)ccc42)CN(C)CC3)c1 : mid-valued
C/C(=C\n1c2c(c3cc(Cl)ccc31)CN(C)CC2)c1nccs1 : mid-valued

In plain terms, what class is C/C=C(/Cn1c2c(c3cc(Cl)ccc31)CN(C)CC2)c1ccncc1 ?
high-valued

Class? Entry: COc1ccc(C#Cn2c3c(c4cc(Cl)ccc42)CN(C)CC3)cc1F
low-valued

Class label required: Cc1ccc2c(c1)c1c(n2C#Cc2ccncc2)CCN(C)C1
mid-valued

# classify by inhibition at 1 µM band: Cc1ccc2c(c1)c1c(n2C#Cc2ccoc2)CCN(C)C1
mid-valued

Any idea which band Cc1ccc2c(c1)c1c(n2/C=C(\F)c2ccc(Br)nc2)CCN(C)C1 is in?
low-valued

Class label required: Cc1ccc2c(c1)c1c(n2/C=C(\F)c2ccncc2)CCN(C)C1
low-valued

Could you place C/C(=C\n1c2c(c3cc(C)ccc31)CN(C)CC2)c1cc(Cl)cc(Cl)c1 in its proper category? Many thanks.
low-valued

Any idea which band Cc1ccc2c(c1)c1c(n2C#Cc2ccsc2)CCN(C)C1 is in?
high-valued

Origin of measurements: patent US8906925B2
